Data origin, for the record: paper PMC9090415

Molecular target: P. falciparum apicoplast DNA polymerase (Pf-apPOL) (Plasmodium falciparum)
Sequence (Q8ILY1 entry or part of it): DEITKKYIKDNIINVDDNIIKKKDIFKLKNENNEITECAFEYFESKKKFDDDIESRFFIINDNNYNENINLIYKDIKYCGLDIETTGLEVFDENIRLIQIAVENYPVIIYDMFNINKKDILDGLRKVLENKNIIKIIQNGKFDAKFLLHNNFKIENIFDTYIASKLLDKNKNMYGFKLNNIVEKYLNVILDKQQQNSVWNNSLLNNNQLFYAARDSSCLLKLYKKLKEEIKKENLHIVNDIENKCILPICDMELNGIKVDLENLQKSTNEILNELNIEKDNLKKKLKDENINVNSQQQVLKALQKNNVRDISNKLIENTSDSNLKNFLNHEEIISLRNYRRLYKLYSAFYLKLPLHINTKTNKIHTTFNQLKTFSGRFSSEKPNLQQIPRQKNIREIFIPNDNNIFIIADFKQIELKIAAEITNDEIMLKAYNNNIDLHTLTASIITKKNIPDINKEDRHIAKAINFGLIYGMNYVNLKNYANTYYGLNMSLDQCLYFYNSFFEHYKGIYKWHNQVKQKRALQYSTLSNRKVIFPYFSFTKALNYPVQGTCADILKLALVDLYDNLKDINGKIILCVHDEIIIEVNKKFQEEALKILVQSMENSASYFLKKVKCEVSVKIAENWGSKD
Test: Fluorescence-based high-throughput DNA polymerase assay (molecular beacon), primary screen and dose-response;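 note: test concentration in µM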
Type: biochemical
Conditions: DRC-2; 90'; concentration 5
Excerpt: The HT assay employs a molecular beacon, a stem-loop DNA template with a Cy3 dye and the Black Hole Quencher on the 3′ and 5′ ends of the DNA, respectively. Pf-apPOL concentration is based on a calculated absorptivity of ε280 = 56750 M^−1 cm^−1. […] To identify apPOL inhibitors we utilised our previously developed high-throughput DNA polymerase assay. […] The assay accurately recapitulates the kinetic behaviour of apPOL, as measured through more conventional low-throughput gel-based assays. […]
ENDPOINT: % inhibition ApPOL 90' (%)
Give the quantity in %, number only.

Query string: State the recorded % inhibition ApPOL 90' for this entry: Cc1ccc2c(C(=O)NCCc3cccnc3)cc(NC(=O)C(C)C)cc2n1 [KU0206096]
Result string: 5.45

Query string: State the recorded % inhibition ApPOL 90' for this entry: CN(C)C1C(c2ccccc2)=C(c2ccccc2)SC(c2ccccc2)C1[N+](=O)[O-] (centres unmarked) [KU0268387]
Result string: 23

Query string: State the recorded % inhibition ApPOL 90' for this entry: Cl.NC(CO)C(=O)NNCc1ccc(O)c(O)c1O (centres unmarked) [KU0260493]
Result string: 22

Query string: State the recorded % inhibition ApPOL 90' for this entry: O=C(Nc1nnc(-c2ccno2)o1)c1ccc2c(c1)OCO2 [KU0171343]
Result string: -8

Query string: State the recorded % inhibition ApPOL 90' for this entry: O=C(Cn1ccc2c(=O)[nH]ccc21)Nc1cccc(Cl)c1 [Molecule 23, O=C(Cn1ccc2c1cc[nH]c2=O)Nc1cccc(c1)Cl]
Result string: 31

Query string: State the recorded % inhibition ApPOL 90' for this entry: COc1ccc(C)cc1NC(=O)Cn1ccc2c(=O)[nH]ccc21 [Molecule 15, COc1ccc(cc1NC(=O)Cn1ccc2c1cc[nH]c2=O)C]
Result string: 24

Query string: State the recorded % inhibition ApPOL 90' for this entry: Cc1ccc(-n2nnc(C(=O)O)c2-c2ccccn2)c(F)c1 [Molecule 54, Cc1ccc(c(c1)F)n1nnc(c1c1ccccn1)C(=O)O]
Result string: 6

Query string: State the recorded % inhibition ApPOL 90' for this entry: O=C(Cn1ccc2c(=O)[nH]ccc21)Nc1cc(F)ccc1F [Molecule 42, O=C(Cn1ccc2c1cc[nH]c2=O)Nc1cc(F)ccc1F]
Result string: 10

###

Please go through the items and note down their % inhibition apPOL 180'.
biological target: P. falciparum apicoplast DNA polymerase (Pf-apPOL) (Plasmodium falciparum); assay: Fluorescence-based high-throughput DNA polymerase assay (molecular beacon), primary screen and dose-response; type: biochemical; conditions: DRC-2; 180'; concentration 2.5;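 note: test concentration in µM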
Give the quantity in %, number only.

Query string: State the recorded % inhibition apPOL 180' for this entry: COc1cc(Cl)c(C)cc1NC(=O)Cn1ccc2c(=O)[nH]ccc21
Result string: -9

Query string: State the recorded % inhibition apPOL 180' for this entry: O=C(Nc1c2c(nn1-c1ccc(Oc3ccccc3)cc1)CSC2)c1ccco1
Result string: 4

Query string: State the recorded % inhibition apPOL 180' for this entry: C#CC(C=CC)OC(=O)c1ccccc1C(=O)O (centres unmarked)
Result string: -4

Query string: State the recorded % inhibition apPOL 180' for this entry: CCCCC(=O)N1CCc2c(nc3cc(-c4ccccc4Cl)[nH]n3c2=O)C1
Result string: 7

Query string: State the recorded % inhibition apPOL 180' for this entry: Cc1cccc(CC(=O)N2CCc3c(nc4cc(-c5ccccc5)[nH]n4c3=O)C2)c1
Result string: 2.3
